Target: Human MIF (MIF tautomerase) (Homo sapiens, UniProt P14174)
Construct: purchased ProSpec
Sequence (P14174 2-115 limits assumed): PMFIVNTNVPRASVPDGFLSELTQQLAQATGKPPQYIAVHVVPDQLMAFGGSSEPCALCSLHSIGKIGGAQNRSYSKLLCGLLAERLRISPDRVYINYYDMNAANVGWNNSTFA
Assay: MIF Tautomerase Inhibitory Assay with L-Dopachrome Methyl Ester
Type: biochemical
Conditions: IC50, relative potency class, MIF tautomerase inhibition; L-dopachrome methyl ester substrate, pH 7.34, no pre-incubation
Readout Label: IC50

Give the reported value of IC50 for this record: CC(OC(=O)Cc1ccccc1)[C@H]1CC[C@H](CN2Cc3cc(F)c(O)cc3C2=O)CC1 (stereo partly shown) < 1000 nM

FYI, the data here is from patent US9617212B2.
